Molecular target: FGFR3 (UniProt P22607)
Sequence (P22607 whole entry, looked up): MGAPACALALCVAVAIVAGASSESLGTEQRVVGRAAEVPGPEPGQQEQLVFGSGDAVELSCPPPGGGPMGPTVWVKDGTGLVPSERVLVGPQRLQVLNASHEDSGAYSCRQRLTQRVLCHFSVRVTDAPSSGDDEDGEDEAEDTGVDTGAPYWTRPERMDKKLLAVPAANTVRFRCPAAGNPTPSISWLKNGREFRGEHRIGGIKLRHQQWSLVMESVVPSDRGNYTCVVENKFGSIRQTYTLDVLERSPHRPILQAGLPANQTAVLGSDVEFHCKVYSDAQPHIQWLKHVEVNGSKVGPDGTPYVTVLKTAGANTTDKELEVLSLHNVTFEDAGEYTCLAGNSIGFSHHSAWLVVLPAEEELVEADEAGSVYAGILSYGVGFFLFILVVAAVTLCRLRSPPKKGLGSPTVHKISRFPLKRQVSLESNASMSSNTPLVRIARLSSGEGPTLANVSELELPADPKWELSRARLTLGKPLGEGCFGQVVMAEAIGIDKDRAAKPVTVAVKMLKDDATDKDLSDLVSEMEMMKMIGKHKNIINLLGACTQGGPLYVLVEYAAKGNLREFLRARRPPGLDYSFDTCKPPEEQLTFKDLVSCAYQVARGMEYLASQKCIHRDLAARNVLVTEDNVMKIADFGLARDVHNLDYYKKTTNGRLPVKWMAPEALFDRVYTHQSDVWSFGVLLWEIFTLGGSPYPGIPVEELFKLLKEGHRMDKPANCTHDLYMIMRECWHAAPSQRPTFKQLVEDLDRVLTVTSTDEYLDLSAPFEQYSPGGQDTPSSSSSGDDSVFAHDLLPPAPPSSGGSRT
Assay: phosphorylation enrichment, bacterial display (enrichment ratio); higher = better substrate or ligand; peptides without Tyr show the background;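 note: 11-residue human phosphosite peptides and single-mutation variants displayed on the E. coli surface, counted by deep sequencing, each peptide's frequency after selection divided by its frequency in the unselected input library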;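 note: frequency after pTyr selection over input frequency; kinase dosed for 20-30% of maximal phosphorylation in three min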
experimental_readout: phosphorylation enrichment
Write the number on its own, no unit after it.

// worked examples, phosphorylation enrichment included
* RAEAQYLLVSN [LRIG1_Y1054] | 1.78
* AMCVRYDGVEV [ADAMTSL2_Y594] | 0.781
* SSYSGYIMMPN [LEF1_Y114] | 2.38
* MGSFNYLGFAW [SPTLC2_Y178_R183W_YF] | 1.03
* QDLLLYQTHSE [PKHD1_Y255_F253L] | 1.28
* LKLKAYRFSIS [LCT_Y974_V971L] | 1.21
* AVIADYMFWLG [SPATA16_Y290_M286V] | 10.7
* NKKYHYRELPV [ERN2_Y860_H858Y] | 0.345

Return reported phosphorylation enrichment; argument: PLDGEYFTRQI [TP53_Y327_L330R]
0.651

Return reported phosphorylation enrichment; argument: LPEENYQVLRF [ARHGAP1_Y365]
2.17

Return reported phosphorylation enrichment; argument: FFCRWYRNQKS [EREG_Y144_R147Q_YF]
0.478

Return reported phosphorylation enrichment; argument: YRDMDYRSYPH [RBM10_Y41_R46H]
2.1

Return reported phosphorylation enrichment; argument: CEHFSYYGMKA [SLC15A2_Y60_R57H]
3.17

Return reported phosphorylation enrichment; argument: GARGRYIMGGP [TNK1_Y277_V278I]
0.4

Return reported phosphorylation enrichment; argument: FGRTFYNQANM [MCCC2_Y196_I200N]
0.695

Return reported phosphorylation enrichment; argument: YMKEPYIQSRF [HIPK4_Y175_V171M]
0.623

Return reported phosphorylation enrichment; argument: QKNVSYVSTVS [TASOR_Y1043]
0.506

Return reported phosphorylation enrichment; argument: DLDFTYIYPNI [PTEN_Y27_L25F]
3.11

Return reported phosphorylation enrichment; argument: ARSHIYTFSSC [MEFV_Y741_A744S]
0.681
